Tested on: Aspergillus oryzae
Method Summary: Antifungal activity against Aspergillus oryzae assessed as fungal growth inhibition at 100 ug/ml by micro-dilution method relative to control
Format: functional
Condition Parameters: read-out: GI
Items are presented alongside their recorded inhibition of growth at 100 µg/mL.
Property Name: inhibition of growth at 100 µg/mL (%)

[[record]]
molecule = "O=C1CC[C@@H](C(=O)N/N=C/c2cc(F)ccc2F)N1"
units_label = "%"
reading = 13

[[record]]
molecule = "O=C1CCC(NNc2cc(F)ccc2F)N1 (racemic)"
units_label = "%"
reading = 0

[[record]]
molecule = "O=C1CC[C@@H](C(=O)N/N=C/c2ccc(Cl)cc2)N1"
units_label = "%"
reading = 0

[[record]]
molecule = "N#Cc1ccc(/C=N/NC(=O)[C@@H]2CCC(=O)N2)cc1"
units_label = "%"
reading = 0

[[record]]
molecule = "CC(C)=CCC/C(C)=C/C=N/NC(=O)[C@@H]1CCC(=O)N1"
units_label = "%"
reading = 17

[[record]]
molecule = "CC1(C)C2CC=C(/C=N/NC(=O)[C@@H]3CCC(=O)N3)C1C2 (stereo partly specified)"
units_label = "%"
reading = 4

[[record]]
molecule = "CN(NC1CCC(=O)N1)c1ccccc1 (racemic)"
units_label = "%"
reading = 45

[[record]]
molecule = "C=C(C)C1CC=C(/C=N/NC(=O)[C@@H]2CCC(=O)N2)CC1 (stereo partly specified)"
units_label = "%"
reading = 0

[[record]]
molecule = "O=C1CC[C@@H](C(=O)N/N=C/C2CCCCC2)N1"
units_label = "%"
reading = 8

[[record]]
molecule = "O=C1CC[C@@H](C(=O)N/N=C/c2ccccc2O)N1"
units_label = "%"
reading = 7

[[record]]
molecule = "O=C1CC[C@@H](C(=O)N/N=C/c2cccc(C(F)(F)F)c2Cl)N1"
units_label = "%"
reading = 4


Data provenance: ChEMBL document CHEMBL4622870
